Every entry's value here was drawn from patent US20120264827A1.

quantity_kind: melting point

Past entries and their recorded results:
Fill in: melting point of "CC(C)(C)CC(=O)NCc1ccc(S(N)(=O)=O)cc1" is ___
205 to 207 °C

Fill in: melting point of "CC(C)(C)C(=O)Nc1ccc(S(N)(=O)=O)cc1" is ___
228 to 229 °C

Fill in: melting point of "CCC(CC)C(=O)NCc1ccc(S(N)(=O)=O)cc1" is ___
148 to 150 °C

Further cases:
Fill in: melting point of CCC(C)C(CC)C(=O)Nc1ccc(S(N)(=O)=O)cc1 (centres unmarked) is ___
203 to 205 °C

----------
quantity_kind: melting point

Fill in: melting point of CCCCC(CC)C(=O)Nc1ccc(S(N)(=O)=O)cc1 (stereo not shown) is ___
188 to 190 °C

Fill in: melting point of CCCC(C(=O)Nc1ccc(S(N)(=O)=O)cc1)C(C)CC (stereo not shown) is ___
223 to 226 °C

Fill in: melting point of CCCC(C(=O)Nc1ccc(S(N)(=O)=O)cc1)C(C)C (stereo not shown) is ___
217 to 219 °C

Further cases:
Fill in: melting point of "CC(C)(C)C(=O)NCc1ccc(S(N)(=O)=O)cc1" is ___
157 to 158 °C
